- Tested on: CIT
- reported-conditions: concentration: 1 μM, replicates: in singlicate; n = 1;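 also: KINOMEscan kinase panel screen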
Reported %Inh is given for each of the following molecules.
The response must be a number in % with no trailing unit.

Field: example entries. Status: answers known.
Nc1cccc(-c2ccc3c(N)n[nH]c3c2)n1 [GSK2192730] : 17
COC(=O)c1cccc(NC(=O)NC2CCN(c3ccnc(Nc4ccc(OC)cc4)n3)C2)c1 (centres unmarked) [GSK1379746] : 0

Request: GET /values?readout=%Inh&system=CIT&item= "CC(=O)c1c(C)c2cnc(Nc3ccc(N4CCNCC4)cn3)nc2n(C2CCCC2)c1=O"
Response: 3

Request: GET /values?readout=%Inh&system=CIT&item= CS(=O)(=O)Cc1ccc(Nc2nccc(-c3c(-c4cccc(NC(=O)C5CCCCC5)c4)nn4ncccc34)n2)cc1 [GSK350559]
Response: 10

Request: GET /values?readout=%Inh&system=CIT&item= COc1ccc2cc(-c3nc(-c4ccccc4C(C)C)[nH]c3-c3ccncc3)ccc2c1 [SB-660566]
Response: 28

Request: GET /values?readout=%Inh&system=CIT&item= COc1ccc(Nc2nccc(N3CCC(NC(=O)C(C)c4ccc(Cl)cc4)CC3)n2)cc1 (centres unmarked) [GSK1379812]
Response: 9

Request: GET /values?readout=%Inh&system=CIT&item= COc1cccc(CNC(=O)NC2CCN(c3ccnc(Nc4ccc(F)cc4)n3)C2)c1 (centres unmarked) [GSK1379723]
Response: 19

Request: GET /values?readout=%Inh&system=CIT&item= "CNCc1ccc2nc(NC(=O)c3ccc(C(C)(C)C)cc3)cn2c1"
Response: 0

Request: GET /values?readout=%Inh&system=CIT&item= COc1cccc(C2=C(Nc3cc(Cl)c(O)c(Cl)c3)C(=O)NC2=O)c1 [SB-390767]
Response: 7

----------
- Test system: SBK1
- reported-conditions: concentration: 1 μM, replicates: in singlicate; n = 1
quantity-name: %Inh
Could you kindly put the unit after your number?

Cc1nccc(-c2c(-c3ccc(F)cc3)ncn2CCCN2CCOCC2)n1.Cl [SB-282975] : 29%
Cc1c(Cn2c(C)c(C)n3c(=O)cc(N4CCOCC4)nc23)cccc1C(F)(F)F [GSK2328680] : 22%
Cc1ccc(NC(=O)c2ccc(Cl)cc2)cc1-c1ccc(C(=O)Nc2ccncc2)cc1 [GSK1398467] : 0%

Request: Record request: %Inh value, item COc1ccc(Nc2nccc(N3CCC(NC(=O)c4cc5ccccc5s4)C3)n2)cc1 (stereo not drawn) [GSK1379738]
Response: 2%

Request: Record request: %Inh value, item Cc1ccc(NC(=O)Nc2ccccc2)cc1-c1ccc(C(=O)Nc2ccncc2)cc1 [GSK1398471]
Response: 5%

Request: Record request: %Inh value, item "COc1ccc(CSc2nnc(-c3ccc4ncsc4c3)o2)cc1C(F)(F)F"
Response: 0%

Request: Record request: %Inh value, item COc1nccc(-c2c(-c3ccc(F)cc3)ncn2CCCN2CCOCC2)n1 [SB-282852]
Response: 0%

Request: Record request: %Inh value, item "COc1ccc(CSc2nnc(-c3ccc4nccn4c3)o2)cc1C(F)(F)F"
Response: 0%

Request: Record request: %Inh value, item CCCCc1nn2ncccc2c1-c1ccnc(NC2CC2)n1 [GW684374]
Response: 0%
